Species on record: Homo sapiens
assay_procedure: Selectivity ratio, ratio of IC50 for inhibition of CLK2 (unknown origin) to IC50 for inhibition of recombinant human GST20 tagged truncated LRRK2 G2019S mutant
Parameter threshold = 10. Response is Yes when Ratio IC50 meets or exceeds it, else No.

IN: Please check the record CC(C)(O)[C@@H]1CCN(c2cnc(C(F)(F)F)c(NC(=O)c3cccc(-c4cnn(C5CCC5)c4)n3)c2)C1 and state if its Ratio IC50 is at or above 10.
OUT: No

IN: Please check the record Cn1cc(-c2nccc(C(=O)Nc3cnn(C4CCC4)c3)n2)cn1 and state if its Ratio IC50 is at or above 10.
OUT: Yes

IN: Please check the record Cc1cnc(N2C[C@@H](C)O[C@@H](C)C2)cc1NC(=O)c1cccc(-c2cnn(C)c2)n1 and state if its Ratio IC50 is at or above 10.
OUT: Yes

IN: Please check the record COC1CN(c2cc(NC(=O)c3cccc(-c4cnn(C)c4)n3)c(C(F)(F)F)cn2)C1 and state if its Ratio IC50 is at or above 10.
OUT: No

IN: Please check the record Cn1cc(-c2cccc(C(=O)Nc3cc(N4CC[C@@H](C(C)(C)O)C4)cnc3C(F)(F)F)n2)cn1 and state if its Ratio IC50 is at or above 10.
OUT: No

IN: Please check the record C[C@@H]1CN(c2cc(NC(=O)c3cccc(-c4cnn(C)c4)n3)c(C(F)(F)F)cn2)C[C@H](C)O1 and state if its Ratio IC50 is at or above 10.
OUT: No

====

system_under_test: Leucine-rich repeat serine/threonine-protein kinase 2 (Homo sapiens, UniProt Q5S007, G2019S)
Sequence (Q5S007 whole entry G2019S): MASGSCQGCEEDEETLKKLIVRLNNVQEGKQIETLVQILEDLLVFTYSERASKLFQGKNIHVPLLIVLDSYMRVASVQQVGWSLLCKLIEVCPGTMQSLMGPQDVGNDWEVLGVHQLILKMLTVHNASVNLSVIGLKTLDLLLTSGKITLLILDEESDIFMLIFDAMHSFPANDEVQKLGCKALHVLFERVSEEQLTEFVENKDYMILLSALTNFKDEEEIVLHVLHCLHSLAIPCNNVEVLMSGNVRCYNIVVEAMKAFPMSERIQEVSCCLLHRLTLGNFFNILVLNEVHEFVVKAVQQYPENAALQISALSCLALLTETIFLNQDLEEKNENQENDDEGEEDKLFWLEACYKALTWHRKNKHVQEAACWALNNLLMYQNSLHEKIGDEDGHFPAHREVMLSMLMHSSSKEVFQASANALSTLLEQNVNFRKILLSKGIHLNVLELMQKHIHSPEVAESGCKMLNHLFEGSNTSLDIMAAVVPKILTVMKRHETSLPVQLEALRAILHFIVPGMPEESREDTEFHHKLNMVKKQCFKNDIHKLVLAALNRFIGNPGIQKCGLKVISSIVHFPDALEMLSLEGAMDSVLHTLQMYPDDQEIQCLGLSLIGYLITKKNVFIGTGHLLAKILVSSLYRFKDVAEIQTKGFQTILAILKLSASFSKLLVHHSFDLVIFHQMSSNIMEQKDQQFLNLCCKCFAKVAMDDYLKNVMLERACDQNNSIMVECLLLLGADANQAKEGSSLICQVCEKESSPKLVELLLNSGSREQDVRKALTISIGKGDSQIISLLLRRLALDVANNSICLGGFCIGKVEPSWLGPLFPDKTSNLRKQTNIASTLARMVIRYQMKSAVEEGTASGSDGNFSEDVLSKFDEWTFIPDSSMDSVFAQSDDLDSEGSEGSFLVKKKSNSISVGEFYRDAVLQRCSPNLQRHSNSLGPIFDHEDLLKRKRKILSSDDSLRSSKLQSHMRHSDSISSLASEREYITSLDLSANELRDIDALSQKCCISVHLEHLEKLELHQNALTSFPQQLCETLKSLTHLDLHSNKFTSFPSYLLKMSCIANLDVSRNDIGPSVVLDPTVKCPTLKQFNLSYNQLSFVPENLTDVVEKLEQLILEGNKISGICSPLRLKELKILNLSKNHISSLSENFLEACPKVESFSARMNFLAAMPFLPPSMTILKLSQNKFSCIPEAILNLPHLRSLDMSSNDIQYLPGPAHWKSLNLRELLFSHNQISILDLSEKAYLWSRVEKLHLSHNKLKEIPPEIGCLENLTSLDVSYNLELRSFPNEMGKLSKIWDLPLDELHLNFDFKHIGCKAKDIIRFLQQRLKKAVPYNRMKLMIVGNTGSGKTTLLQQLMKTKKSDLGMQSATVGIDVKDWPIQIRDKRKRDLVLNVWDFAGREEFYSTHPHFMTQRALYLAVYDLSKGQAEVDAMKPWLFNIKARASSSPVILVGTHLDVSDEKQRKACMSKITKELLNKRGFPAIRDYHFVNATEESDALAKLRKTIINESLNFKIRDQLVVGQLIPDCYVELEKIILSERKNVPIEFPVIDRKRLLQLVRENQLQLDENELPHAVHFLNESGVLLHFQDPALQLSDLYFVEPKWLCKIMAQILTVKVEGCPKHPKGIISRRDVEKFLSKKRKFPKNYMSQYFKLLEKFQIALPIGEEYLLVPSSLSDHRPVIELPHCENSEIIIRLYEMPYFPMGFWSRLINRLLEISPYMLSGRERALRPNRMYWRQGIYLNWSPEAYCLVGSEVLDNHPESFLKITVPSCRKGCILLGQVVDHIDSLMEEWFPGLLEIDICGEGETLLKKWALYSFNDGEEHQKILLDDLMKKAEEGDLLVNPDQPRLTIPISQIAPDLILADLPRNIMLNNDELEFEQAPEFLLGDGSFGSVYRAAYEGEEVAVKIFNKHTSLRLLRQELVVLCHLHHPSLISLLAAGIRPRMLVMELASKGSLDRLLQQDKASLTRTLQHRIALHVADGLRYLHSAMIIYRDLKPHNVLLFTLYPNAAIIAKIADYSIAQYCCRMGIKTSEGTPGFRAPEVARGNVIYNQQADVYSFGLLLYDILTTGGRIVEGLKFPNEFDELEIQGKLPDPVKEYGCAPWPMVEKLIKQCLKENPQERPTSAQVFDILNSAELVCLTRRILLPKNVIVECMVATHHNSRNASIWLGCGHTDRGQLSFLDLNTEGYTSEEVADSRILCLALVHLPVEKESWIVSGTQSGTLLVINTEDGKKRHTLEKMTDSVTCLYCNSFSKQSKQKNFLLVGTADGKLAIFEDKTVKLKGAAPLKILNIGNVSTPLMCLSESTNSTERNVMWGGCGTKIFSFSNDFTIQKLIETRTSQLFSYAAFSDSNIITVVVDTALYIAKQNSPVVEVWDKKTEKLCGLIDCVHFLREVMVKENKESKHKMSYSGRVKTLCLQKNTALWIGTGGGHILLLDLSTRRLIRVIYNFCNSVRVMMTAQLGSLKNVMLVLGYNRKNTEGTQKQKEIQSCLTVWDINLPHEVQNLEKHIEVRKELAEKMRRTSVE
assay_procedure: Inhibition of human LRRK2 G2019S mutant expressed in human SH-SY5Y cells assessed as inhibition of tetracycline induced LRRK2 phosphorylation at Ser935 residue incubated for 90 mins by MSD assay
Assay type: cell-based
pIC50: −log10 of the molar value.
Labels assigned by pIC50 range: A: < 8; B: ≥ 8 and < 9; C: ≥ 9

IN: Please classify: C[C@@H]1[C@@H](O)CN1c1cc(NC(=O)c2cccc(-c3cnn(C)c3)n2)c(C(F)(F)F)cn1
OUT: B

IN: Please classify: Cc1nc(NC(=O)c2cccc(-c3cnn(C)c3)n2)cc(N2CC[C@@H](C(C)(C)O)C2)n1
OUT: A

IN: Please classify: Cn1cc(-c2cccc(C(=O)Nc3cc(N4CC[C@@H](C(C)(C)O)C4)cnc3C(F)(F)F)n2)cn1
OUT: A

IN: Please classify: Cn1cc(-c2cccc(C(=O)Nc3cnn(C4CCC4)c3)n2)cn1
OUT: A

IN: Please classify: C[C@@H]1[C@H](O)CCN1c1cc(NC(=O)c2cccc(-c3cnn(C)c3)n2)c(C(F)(F)F)cn1
OUT: B

IN: Please classify: CC(C)(O)[C@@H]1CCN(c2cnc(C(F)(F)F)c(NC(=O)c3cccc(-c4cnn(CC5CC5)c4)n3)c2)C1
OUT: C

IN: Please classify: CC(C)(O)[C@@H]1CCN(c2cnc(C(F)(F)F)c(NC(=O)c3cccc(-c4cnn(CC5(C(F)(F)F)CC5)c4)n3)c2)C1
OUT: C

====

Organism: Homo sapiens
assay_procedure: Selectivity ratio, ratio of IC50 for inhibition of CLK2 (unknown origin) to IC50 for inhibition of recombinant human GST20 tagged truncated LRRK2 G2019S mutant
value_type: Ratio IC50

IN: Which value of Ratio IC50 has been reported for Cn1cc(-c2cccc(C(=O)Nc3cnn(C4CCC4)c3)n2)cn1 in the records?
OUT: 112

IN: Which value of Ratio IC50 has been reported for CC(C)(O)[C@@H]1CCN(c2cnc(C(F)(F)F)c(NC(=O)c3cccc(-c4cnn(CC5(C(F)(F)F)CC5)c4)n3)c2)C1 in the records?
OUT: 59

IN: Which value of Ratio IC50 has been reported for Cn1cc(-c2cccc(C(=O)Nc3cc(N4CC[C@@H](C(C)(C)O)C4)ncc3C(F)(F)F)n2)cn1 in the records?
OUT: 63

IN: Which value of Ratio IC50 has been reported for Cn1cc(-c2nc(C(=O)Nc3cnn(C4CCC4)c3)cs2)cn1 in the records?
OUT: 8.5

IN: Which value of Ratio IC50 has been reported for CC(C)(O)[C@@H]1CCN(c2cnc(C(F)(F)F)c(NC(=O)c3cccc(-c4cnn(CC5CC5)c4)n3)c2)C1 in the records?
OUT: 3

IN: Which value of Ratio IC50 has been reported for Cn1cc(-c2cccc(C(=O)Nc3cc(N4CC(O)C4)ncc3C(F)(F)F)n2)cn1 in the records?
OUT: 13

IN: Which value of Ratio IC50 has been reported for CC(C)(O)[C@@H]1CCN(c2cnc(C(F)(F)F)c(NC(=O)c3cccc(-c4cnn(CC(F)(F)F)c4)n3)c2)C1 in the records?
OUT: 42

IN: Which value of Ratio IC50 has been reported for C[C@H]1CN(c2cc(NC(=O)c3cccc(-c4cnn(C)c4)n3)c(C(F)(F)F)cn2)CCN1C1COC1 in the records?
OUT: 5

====

system_under_test: Leucine-rich repeat serine/threonine-protein kinase 2 (Homo sapiens, UniProt Q5S007, G2019S)
assay_procedure: Inhibition of human LRRK2 G2019S mutant expressed in human SH-SY5Y cells assessed as inhibition of tetracycline induced LRRK2 phosphorylation at Ser935 residue incubated for 90 mins by MSD assay
Format: cell-based
Provide the recorded pIC50 for the entries that follow.
When answering, recall that pIC50 equals minus log10 of the concentration in mol/L, and write that number alone.

IN: Which value of pIC50 has been reported for Cn1cc(-c2cccc(C(=O)Nc3cc(N4CC[C@@H](C(C)(C)O)C4)ncc3C(F)(F)F)n2)cn1 in the records?
OUT: 8.60

IN: Which value of pIC50 has been reported for Cc1cnc(N2C[C@@H](C)O[C@@H](C)C2)cc1NC(=O)c1cccc(-c2cnn(C)c2)n1 in the records?
OUT: 7.62

IN: Which value of pIC50 has been reported for Cn1cc(-c2nc(C(=O)Nc3cnn(C4CCC4)c3)cs2)cn1 in the records?
OUT: 6.57

IN: Which value of pIC50 has been reported for CC(C)(O)[C@@H]1CCN(c2cnc(C(F)(F)F)c(NC(=O)c3cccc(-c4cnn(CC(F)(F)F)c4)n3)c2)C1 in the records?
OUT: 9.15

IN: Which value of pIC50 has been reported for Cn1cc(-c2cccc(C(=O)Nc3cnn(C4CCC4)c3)c2F)cn1 in the records?
OUT: 5.78

IN: Which value of pIC50 has been reported for Cn1cc(-c2nccc(C(=O)Nc3cnn(C4CCC4)c3)n2)cn1 in the records?
OUT: 6.02

IN: Which value of pIC50 has been reported for CCn1cc(-c2cccc(C(=O)Nc3cc(N4CC[C@@H](C(C)(C)O)C4)cnc3C(F)(F)F)n2)cn1 in the records?
OUT: 8.15

IN: Which value of pIC50 has been reported for COC1CN(c2cc(NC(=O)c3cccc(-c4cnn(C)c4)n3)c(C(F)(F)F)cn2)C1 in the records?
OUT: 8.55

IN: Which value of pIC50 has been reported for Cn1cc(-c2cccc(C(=O)Nc3cc(N4CC5(C(C)(C)O)CC4C5)ncc3C(F)(F)F)n2)cn1 in the records?
OUT: 8.70

====

assay_procedure: MRT in po dosed CD rat measured after 120 mins by LC-MS/MS analysis
Type: ADME, organism-based
setup_conditions: in vivo
Provide the recorded MRT for the entries that follow.
Write the value in h as a bare number.

IN: Which value of MRT has been reported for CC(C)(O)[C@@H]1CCN(c2cnc(C(F)(F)F)c(NC(=O)c3cccc(-c4cnn(CC(F)(F)F)c4)n3)c2)C1 in the records?
OUT: 1.7

IN: Which value of MRT has been reported for CC(C)(O)[C@@H]1CCN(c2cnc(C(F)(F)F)c(NC(=O)c3cccc(-c4cnn(CC5(C(F)(F)F)CC5)c4)n3)c2)C1 in the records?
OUT: 1.2

IN: Which value of MRT has been reported for Cn1cc(-c2cccc(C(=O)Nc3cc(N4CC[C@@H](C(C)(C)O)C4)ncc3C(F)(F)F)n2)cn1 in the records?
OUT: 5.2

IN: Which value of MRT has been reported for CC(C)(O)[C@@H]1CCN(c2cnc(C(F)(F)F)c(NC(=O)c3cccc(-c4cnn(CC5CC5)c4)n3)c2)C1 in the records?
OUT: 2.9

====

These compounds were tested on Dual specificity protein kinase CLK2 (Homo sapiens, UniProt P49760); IC50 is the recorded read-out.
Sequence (P49760 whole entry): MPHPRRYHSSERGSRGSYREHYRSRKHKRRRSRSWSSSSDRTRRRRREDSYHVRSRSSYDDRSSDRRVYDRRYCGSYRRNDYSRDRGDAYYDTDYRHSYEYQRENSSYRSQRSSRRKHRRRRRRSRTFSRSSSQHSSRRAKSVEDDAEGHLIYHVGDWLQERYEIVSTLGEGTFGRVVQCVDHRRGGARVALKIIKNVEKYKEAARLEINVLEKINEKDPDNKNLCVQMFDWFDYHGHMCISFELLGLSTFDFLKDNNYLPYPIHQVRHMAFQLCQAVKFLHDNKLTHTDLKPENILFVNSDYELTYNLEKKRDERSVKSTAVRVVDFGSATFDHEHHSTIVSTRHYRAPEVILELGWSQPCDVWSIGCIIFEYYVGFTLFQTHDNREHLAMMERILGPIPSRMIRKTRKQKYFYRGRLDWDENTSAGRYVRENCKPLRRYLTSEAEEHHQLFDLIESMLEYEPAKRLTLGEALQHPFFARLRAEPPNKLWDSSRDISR
Write the value in nM as a bare number.

IN: Which value of IC50 has been reported for Cn1cc(-c2cccc(C(=O)Nc3cc(N4CC5(C(C)(C)O)CC4C5)ncc3C(F)(F)F)n2)cn1 in the records?
OUT: 9.6

IN: Which value of IC50 has been reported for Cn1cc(-c2cccc(C(=O)Nc3cc(N4CC(O)C4)ncc3C(F)(F)F)n2)cn1 in the records?
OUT: 64

IN: Which value of IC50 has been reported for C[C@H]1CN(c2cc(NC(=O)c3cccc(-c4cnn(C)c4)n3)c(C(F)(F)F)cn2)CCN1C1COC1 in the records?
OUT: 8

IN: Which value of IC50 has been reported for Cn1cc(-c2nccc(C(=O)Nc3cnn(C4CCC4)c3)n2)cn1 in the records?
OUT: 17200

IN: Which value of IC50 has been reported for Cn1cc(-c2cccc(C(=O)Nc3cnn(C4CCC4)c3)n2)cn1 in the records?
OUT: 5960

IN: Which value of IC50 has been reported for Cn1cc(-c2nc(C(=O)Nc3cnn(C4CCC4)c3)cs2)cn1 in the records?
OUT: 119

IN: Which value of IC50 has been reported for CC(C)(O)[C@@H]1CCN(c2cnc(C(F)(F)F)c(NC(=O)c3cccc(-c4cnn(CC5(C(F)(F)F)CC5)c4)n3)c2)C1 in the records?
OUT: 470

IN: Which value of IC50 has been reported for Cc1cnc(N2C[C@@H](C)O[C@@H](C)C2)cc1NC(=O)c1cccc(-c2cnn(C)c2)n1 in the records?
OUT: 124

IN: Which value of IC50 has been reported for CCn1cc(-c2cccc(C(=O)Nc3cc(N4CC[C@@H](C(C)(C)O)C4)cnc3C(F)(F)F)n2)cn1 in the records?
OUT: 30

Just for reference, ChEMBL document CHEMBL5107939 is where these values come from.
